Entries and their measured ED50 Larynx Hep. 2 follow.
# System: human larynx (HeP.2)
# PROCEDURE TEXT: MTT cytotoxicity assay, human larynx (HeP.2)
# Format: cell-based
# CONDITION PARAMETERS: 72 hours
METRIC NAME: ED50 Larynx Hep. 2 (µg/mL)

{"COMPOUND": "CC(C)C1CCC2(C(=O)O)CCC3(C)C(CCC4C5(C)CCC(NC(=O)CCl)C(C)(C)C5CCC43C)C12 (stereo not drawn)", "READOUT UNIT": "µg/mL", "QUALIFIER OPERATOR": "=", "TEST VALUE": 3.5}
{"COMPOUND": "COC(=O)COC(=O)C12CCC(C(C)C)C1C1CCC3C4(C)CCC(NC(C)=O)C(C)(C)C4CCC3(C)C1(C)CC2 (stereo not drawn)", "READOUT UNIT": "µg/mL", "QUALIFIER OPERATOR": ">", "TEST VALUE": 10}
{"COMPOUND": "CC(C)C1CCC2(C(=O)O)CCC3(C)C(CCC4C5(C)CCC(OC(=O)c6cccc(C(F)(F)F)c6)C(C)(C)C5CCC43C)C12 (stereo not drawn)", "READOUT UNIT": "µg/mL", "QUALIFIER OPERATOR": "=", "TEST VALUE": 5.4}
{"COMPOUND": "CC(C)C1CCC2(C(=O)O)CCC3(C)C(CCC4C5(C)CCC(OS(C)(=O)=O)C(C)(C)C5CCC43C)C12 (stereo not drawn)", "READOUT UNIT": "µg/mL", "QUALIFIER OPERATOR": ">", "TEST VALUE": 10}
{"COMPOUND": "CC(C)C1CCC2(C(=O)O)CCC3(C)C(CCC4C5(C)CCC(NNc6ccccc6)C(C)(C)C5CCC43C)C12 (stereo not drawn)", "READOUT UNIT": "µg/mL", "QUALIFIER OPERATOR": "=", "TEST VALUE": 2.25}
{"COMPOUND": "C=CC(=O)OC(=O)C12CCC(C(C)C)C1C1CCC3C4(C)CCC(O)C(C)(C)C4CCC3(C)C1(C)CC2 (stereo not drawn)", "READOUT UNIT": "µg/mL", "QUALIFIER OPERATOR": "=", "TEST VALUE": 3.0}
{"COMPOUND": "C=C(C)C1CCC2(C(=O)O)CCC3(C)C(CCC4C5(C)CCC(OC(=O)c6cccc(C(F)(F)F)c6)C(C)(C)C5CCC43C)C12 (stereo not drawn)", "READOUT UNIT": "µg/mL", "QUALIFIER OPERATOR": "=", "TEST VALUE": 4.0}
{"COMPOUND": "COc1ccc(NNC2CCC3(C)C(CCC4(C)C3CCC3C5C(C(C)C)CCC5(C(=O)O)CCC34C)C2(C)C)cc1 (stereo not drawn)", "READOUT UNIT": "µg/mL", "QUALIFIER OPERATOR": "=", "TEST VALUE": 7.0}
{"COMPOUND": "CC(C)C1CCC2(C(=O)O)CCC3(C)C(CCC4C5(C)CCC(=NNC(=O)c6ccccc6)C(C)(C)C5CCC43C)C12 (stereo not drawn)", "READOUT UNIT": "µg/mL", "QUALIFIER OPERATOR": "=", "TEST VALUE": 4.0}
{"COMPOUND": "C=C(C)[C@@H]1CC[C@]2(C(=O)O)CC[C@]3(C)[C@H](CC[C@@H]4[C@@]5(C)CC[C@H](O)C(C)(C)[C@@H]5CC[C@]43C)[C@@H]12", "READOUT UNIT": "µg/mL", "QUALIFIER OPERATOR": ">", "TEST VALUE": 10}
{"COMPOUND": "CC(C)C1CCC2(C(=O)O)CCC3(C)C(CCC4C5(C)CCC(=NNc6ccc(F)cc6)C(C)(C)C5CCC43C)C12 (stereo not drawn)", "READOUT UNIT": "µg/mL", "QUALIFIER OPERATOR": ">", "TEST VALUE": 10}
{"COMPOUND": "C=C(C)C1CCC2(C(=O)O)CCC3(C)C(CCC4C5(C)CCC(OC(=O)Cc6cc(OC)ccc6OC)C(C)(C)C5CCC43C)C12 (stereo not drawn)", "READOUT UNIT": "µg/mL", "QUALIFIER OPERATOR": "=", "TEST VALUE": 1.7}
{"COMPOUND": "C=C(C)C1CCC2(C(=O)O)CCC3(C)C(CCC4C5(C)CCC(OC(=O)c6cc(F)cc(F)c6)C(C)(C)C5CCC43C)C12 (stereo not drawn)", "READOUT UNIT": "µg/mL", "QUALIFIER OPERATOR": ">", "TEST VALUE": 10}
{"COMPOUND": "CC(C)C1CCC2(C(=O)OC(=O)C34CCC(C(C)C)C3C3CCC5C6(C)CC(Br)C(=O)C(C)(C)C6CCC5(C)C3(C)CC4)CCC3(C)C(CCC4C5(C)CC(Br)C(=O)C(C)(C)C5CCC43C)C12 (stereo not drawn)", "READOUT UNIT": "µg/mL", "QUALIFIER OPERATOR": "=", "TEST VALUE": 5.0}
{"COMPOUND": "C=C(C)C1CCC2(C(=O)OCC(=O)OC)CCC3(C)C(CCC4C5(C)CCC(NCCO)C(C)(C)C5CCC43C)C12 (stereo not drawn)", "READOUT UNIT": "µg/mL", "QUALIFIER OPERATOR": "=", "TEST VALUE": 4.2}
{"COMPOUND": "CC(C)C1CCC2(C(=O)O)CCC3(C)C(CCC4C5(C)CCC(N=Cc6ccc(F)c(F)c6)C(C)(C)C5CCC43C)C12 (stereo not drawn)", "READOUT UNIT": "µg/mL", "QUALIFIER OPERATOR": "=", "TEST VALUE": 3.0}
{"COMPOUND": "CC(C)C1CCC2(C(=O)O)CCC3(C)C(CCC4C5(C)CCC(N=Cc6ccc(F)cc6F)C(C)(C)C5CCC43C)C12 (stereo not drawn)", "READOUT UNIT": "µg/mL", "QUALIFIER OPERATOR": "=", "TEST VALUE": 2.6}
{"COMPOUND": "C=C(C)C1CCC2(C(=O)O)CCC3(C)C(CCC4C5(C)CCC(OC(=O)c6ccc(CCCCC)cc6)C(C)(C)C5CCC43C)C12 (stereo not drawn)", "READOUT UNIT": "µg/mL", "QUALIFIER OPERATOR": "=", "TEST VALUE": 1.7}
{"COMPOUND": "C=C(C)C1CCC2(C(=O)O)CCC3(C)C(CCC4C5(C)CCC(OC(=O)c6ccc(CCCCCCC)cc6)C(C)(C)C5CCC43C)C12 (stereo not drawn)", "READOUT UNIT": "µg/mL", "QUALIFIER OPERATOR": "=", "TEST VALUE": 2.0}
{"COMPOUND": "C=C(C)C1CCC2(C(=O)O)CCC3(C)C(CCC4C5(C)CCC(OS(C)(=O)=O)C(C)(C)C5CCC43C)C12 (stereo not drawn)", "READOUT UNIT": "µg/mL", "QUALIFIER OPERATOR": "=", "TEST VALUE": 7.0}
{"COMPOUND": "C=CC(=O)OC(=O)C12CCC(C(=C)C)C1C1CCC3C4(C)CCC(O)C(C)(C)C4CCC3(C)C1(C)CC2 (stereo not drawn)", "READOUT UNIT": "µg/mL", "QUALIFIER OPERATOR": "=", "TEST VALUE": 1.6}
